- Tested on: NCI-H522
- experiment-summary: Cytotoxicity against human NCI-H522 cells after 48 hrs by sulforhodamine B assay
- Assay type: functional
- recorded-conditions: NCI-H522, 48 h
measurement-label: GI50 (nM)
// note: answer is a bare numeric in nM

- compound-structure-string: "COc1cc(C(=O)c2ccc(OC)c(O)c2OC)cc(OC)c1O"
  measurement-unit: "nM"
  experimental-value: 290
- compound-structure-string: "COc1ccc(C(=O)c2cc(OC)c(O)c(OC)c2)cc1OC"
  measurement-unit: "nM"
  experimental-value: 3640

--- query ---
Give reported GI50 for `COc1cc(C(=O)c2ccc3c(c2)oc(=O)n3S(C)(=O)=O)cc(OC)c1OC` (NCI-H522) 2340

----------
- Test system: HCT-15
- experiment-summary: Cytotoxicity against human HCT15 cells after 48 hrs by sulforhodamine B assay
- Type: functional
- recorded-conditions: HCT-15, 48 h
GI50 for assorted compounds
// note: answer is a bare numeric in nM

- compound-structure-string: "COc1cc(C(=O)c2ccc3c(c2)oc(=O)n3S(C)(=O)=O)cc(OC)c1OC"
  measurement-unit: "nM"
  GI50: 2000
- compound-structure-string: "COc1ccc(C(=O)c2cc(OC)c(OC)c(OC)c2)c(OC)c1O"
  measurement-unit: "nM"
  GI50: 10.6
- compound-structure-string: "COc1cc(C(=O)c2ccc(OC)c(O)c2OC)cc(OC)c1O"
  measurement-unit: "nM"
  GI50: 611

--- query ---
Indicate the recorded GI50 value for this compound: `COc1ccc(C(=O)c2cc(OC)c(O)c(OC)c2)cc1OC` 2070

----------
- System: SF-295
- experiment-summary: Cytotoxicity against human SF295 cells after 48 hrs by sulforhodamine B assay
- Assay type: functional
- recorded-conditions: SF-295, 48 h
measurement-label: GI50 (µM)
// note: answer is a bare numeric in µM

Please review the entries below; each comes with its answer.
- compound: "COc1ccc(C(=O)c2cc(OC)c(O)c(OC)c2)cc1OC"
  measurement-unit: "µM"
  experimental-value: 2.08
- compound: "COc1ccc(C(=O)c2cc(OC)c(OC)c(OC)c2)cc1O [PHENSTATIN]"
  measurement-unit: "µM"
  experimental-value: 0.052
- compound: "COc1ccc(/C=C\\c2cc(OC)c(OC)c(OC)c2)cc1O [COMBRETASTATIN A4]"
  measurement-unit: "µM"
  experimental-value: 0.0631
- compound: "COc1ccc(C(=O)c2cc(OC)c(OC)c(OC)c2)c(O)c1O [HYDROXYPHENSTATIN]"
  measurement-unit: "µM"
  experimental-value: 0.12
- compound: "COc1ccc(C(=O)c2cc(OC)c(OC)c(OC)c2)c(OC)c1O"
  measurement-unit: "µM"
  experimental-value: 0.0199
- compound: "COc1ccc(C(=O)c2cc(OC)c(OC)c(OC)c2)c(OC)c1N"
  measurement-unit: "µM"
  experimental-value: 0.0199

Indicate the recorded GI50 value for this compound: `COc1cc(C(=O)c2ccc3c(c2)oc(=O)n3S(C)(=O)=O)cc(OC)c1OC` 1.61

Indicate the recorded GI50 value for this compound: `COc1ccc(C(=O)c2cc(OC)c(OC)c(OC)c2)c(OC)c1NC(C)=O` 0.293

Indicate the recorded GI50 value for this compound: `COc1cc(C(=O)c2ccc(OC)c(O)c2OC)cc(OC)c1O` 1.4
